Hey, just so you know, these numbers are from the Kinase Knowledgebase extract (Sharma et al. 2016).

- TARGET_OF_ASSAY: PIK3CB (Human) (UniProt P42338)
- Sequence (P42338 whole entry, looked up): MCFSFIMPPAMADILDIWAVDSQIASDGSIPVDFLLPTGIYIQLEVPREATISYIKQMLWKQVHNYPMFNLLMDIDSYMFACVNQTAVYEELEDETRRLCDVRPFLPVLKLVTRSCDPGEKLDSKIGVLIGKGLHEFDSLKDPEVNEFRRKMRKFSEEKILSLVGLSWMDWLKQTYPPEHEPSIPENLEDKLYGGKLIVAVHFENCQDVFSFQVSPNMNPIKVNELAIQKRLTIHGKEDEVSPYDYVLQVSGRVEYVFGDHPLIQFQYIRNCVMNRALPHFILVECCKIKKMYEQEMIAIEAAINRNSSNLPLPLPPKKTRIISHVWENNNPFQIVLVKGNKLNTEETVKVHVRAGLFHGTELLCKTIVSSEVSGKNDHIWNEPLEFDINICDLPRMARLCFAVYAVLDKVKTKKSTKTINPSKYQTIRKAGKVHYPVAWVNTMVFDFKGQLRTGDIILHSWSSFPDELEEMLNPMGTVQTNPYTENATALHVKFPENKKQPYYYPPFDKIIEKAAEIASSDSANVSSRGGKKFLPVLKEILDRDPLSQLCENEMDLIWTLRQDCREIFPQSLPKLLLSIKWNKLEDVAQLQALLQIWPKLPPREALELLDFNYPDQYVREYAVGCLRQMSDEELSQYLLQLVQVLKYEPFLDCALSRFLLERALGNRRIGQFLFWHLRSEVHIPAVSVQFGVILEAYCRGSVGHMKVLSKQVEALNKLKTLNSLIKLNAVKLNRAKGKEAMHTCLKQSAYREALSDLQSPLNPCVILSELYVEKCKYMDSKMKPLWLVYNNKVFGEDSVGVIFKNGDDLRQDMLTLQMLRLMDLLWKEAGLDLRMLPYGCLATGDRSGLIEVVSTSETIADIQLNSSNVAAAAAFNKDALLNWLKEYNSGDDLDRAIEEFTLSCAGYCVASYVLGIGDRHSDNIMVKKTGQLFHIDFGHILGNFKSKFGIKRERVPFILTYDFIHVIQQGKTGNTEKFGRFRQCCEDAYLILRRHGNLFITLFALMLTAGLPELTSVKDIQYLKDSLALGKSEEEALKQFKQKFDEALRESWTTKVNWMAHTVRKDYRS
pIC50: −log10 of the molar value.
Known pIC50 of a selection of compounds

Qu. Fill blank: measured pIC50 of the compound CC(=O)Nc1nc2ccc(-c3cncc(S(=O)(=O)N(C)C)c3)cc2s1 is ____.
Ans. > 6.00

Qu. Fill blank: measured pIC50 of the compound CC(=O)Nc1nc2ccc(-c3cccc(S(=O)(=O)N(C)CCO)c3)cc2s1 is ____.
Ans. > 6.00

Qu. Fill blank: measured pIC50 of the compound CC(C)c1noc(CCNC(=O)Nc2nc3ccc(-c4cccc(S(=O)(=O)NCCO)c4)cc3s2)n1 is ____.
Ans. > 6.00

Qu. Fill blank: measured pIC50 of the compound CS(=O)(=O)c1cccc(-c2ccc3nc(NC=O)sc3c2)c1 is ____.
Ans. < 4.70

Qu. Fill blank: measured pIC50 of the compound CS(=O)(=O)c1cccc(-c2ccc3nc(NC(=O)NCCC(=O)N4CCOCC4)sc3c2)c1 is ____.
Ans. > 6.00

***
Qu. Fill blank: measured pIC50 of the compound CC(=O)Nc1nc2ccc(-c3cccc(S(=O)(=O)NCCO)c3)cc2s1 is ____.
Ans. > 6.00

* * *

Reported values: IC50 for PIK3CG (human) (UniProt P48736), one per item.

Example entries begin here.
Qu. Given the entry CC(=O)Nc1nc2ccc(-c3cccc(S(C)(=O)=O)c3)cc2s1 , what IC50 was observed with PIK3CG (human) (UniProt P48736)?
Ans. < 1 µM

Qu. Given the entry CC(=O)Nc1nc2ccc(-c3cccc(S(=O)(=O)NCCCO)c3)cc2s1 , what IC50 was observed with PIK3CG (human) (UniProt P48736)?
Ans. < 1 µM

Qu. Given the entry CN(C)S(=O)(=O)c1cccc(-c2ccc3nc(NC(=O)NCCC(=O)OC(C)(C)C)sc3c2)c1 , what IC50 was observed with PIK3CG (human) (UniProt P48736)?
Ans. < 1 µM

Qu. Given the entry CS(=O)(=O)c1cccc(-c2ccc3nc(NC(=O)NCCc4noc(-c5ccccc5)n4)sc3c2)c1 , what IC50 was observed with PIK3CG (human) (UniProt P48736)?
Ans. > 20 µM

Qu. Given the entry CC(C)n1cnc(CCNC(=O)Nc2nc3ccc(-c4cccc(S(C)(=O)=O)c4)cc3s2)c1 , what IC50 was observed with PIK3CG (human) (UniProt P48736)?
Ans. < 1 µM

Qu. Given the entry CC(=O)Nc1nc2ccc(-c3cccc(C(N)=O)c3)cc2s1 , what IC50 was observed with PIK3CG (human) (UniProt P48736)?
Ans. < 1 µM

Qu. Given the entry CS(=O)(=O)c1cccc(-c2ccc3nc(NC(=O)NCCC(=O)N4CCCC4)sc3c2)c1 , what IC50 was observed with PIK3CG (human) (UniProt P48736)?
Ans. < 1 µM

Qu. Given the entry COC(=O)c1cccc(-c2ccc3nc(NC(C)=O)sc3c2)c1 , what IC50 was observed with PIK3CG (human) (UniProt P48736)?
Ans. > 20 µM

Qu. Given the entry CC(=O)Nc1nc2ccc(-c3cccc(S(=O)(=O)N(C)C)c3)cc2s1 , what IC50 was observed with PIK3CG (human) (UniProt P48736)?
Ans. < 1 µM

Now consider the entry below.
Qu. Given the entry CC(=O)Nc1nc2ccc(-c3ccc(Cl)c(S(=O)(=O)NCCO)c3)cc2s1 , what IC50 was observed with PIK3CG (human) (UniProt P48736)?
Ans. < 1 µM
